- Species on record: Rattus norvegicus
- procedure_text: Open TG-GATES - Regimen: Daily Repeat
- Assay type: toxicity, organism-based, Sprague-Dawley
- Design: regimen Daily Repeat, gender Male, age 6 weeks
- measurement_conditions: in vivo, po, 100 mg/kg, 72 h, tissue Blood, route gavage, dose level Low, time 3 day
readout_kind: Neu (%)
Answer in %, number only, no unit symbol.

Return value of Neu for input CCCCNC(=O)NS(=O)(=O)c1ccc(C)cc1 [TOLBUTAMIDE] , no commentary.
15.8

Tell me Neu reported for O=C(O)c1ccccc1Nc1ccccc1
16.8

Hello, please tell me recorded Neu for this one: CC(S)C(=O)NCC(=O)O (centres undefined)
17.8

Give the reported value of Neu for this record: CC(=O)[C@@]1(O)CC[C@H]2[C@@H]3C=C(Cl)C4=CC(=O)CC[C@]4(C)[C@H]3CC[C@@]21C
15.6

* * *

- Species on record: Rattus norvegicus
- procedure_text: Open TG-GATES - Regimen: Single
- Assay type: toxicity, organism-based, Sprague-Dawley
- Set-up: regimen Single, gender Male, age 6 weeks
- measurement_conditions: in vivo, po, 0 mg/kg, 6 h, tissue Plasma, route gavage, dose level Control
Provide the recorded TG for the entries that follow.
Your answer is read as mg/dL, so omit the unit and give the number.

State its TG for this compound: COc1cc2ncnc(Nc3ccc(F)c(Cl)c3)c2cc1OCCCN1CCOCC1 [GEFITINIB]
78.2

Query TG for C=C[C@H]1C[N@@]2CC[C@H]1C[C@@H]2[C@@H](O)c1ccnc2ccc(OC)cc12 [QUINIDINE]
73.6

Item CN(C/C=C/C#CC(C)(C)C)Cc1cccc2ccccc12 [TERBINAFINE] : provide TG
59.2

Tell me measured TG for CCCCNC(=O)NS(=O)(=O)c1ccc(C)cc1 [TOLBUTAMIDE] please.
46.6

* * *

- Species: Rattus norvegicus
- procedure_text: Open TG-GATES - Regimen: Daily Repeat
- Format: toxicity, organism-based, Sprague-Dawley
- Design: regimen Daily Repeat, gender Male, age 6 weeks
- measurement_conditions: in vivo, po, 300 mg/kg, […], tissue Plasma, route gavage, dose level Middle, time 7 day
readout_kind: PL (mg/dL)
Use mg/dL as the unit, but write only the number.

Give PL for the following compound: CC(=O)[C@@]1(O)CC[C@H]2[C@@H]3C=C(Cl)C4=CC(=O)CC[C@]4(C)[C@H]3CC[C@@]21C
182.2

Give PL for CCCCNC(=O)NS(=O)(=O)c1ccc(C)cc1 [TOLBUTAMIDE]
161

Read off the recorded PL for O=C(O)c1ccccc1Nc1ccccc1
150.4

State, in one line, measured PL of CC(S)C(=O)NCC(=O)O (centres undefined)
144.6

* * *

- Organism: Rattus norvegicus
- procedure_text: Open TG-GATES - Regimen: Single
- Format: toxicity, organism-based, Sprague-Dawley
- Parameters: regimen Single, gender Male, age 6 weeks
- measurement_conditions: in vivo, po, 0 mg/kg, 24 h, tissue Plasma, route gavage, dose level Control
Field: BUN. Provide a value for each of the compounds that follow.
The reply should be a number in mg/dL, with the unit left off.

Please list BUN recorded for the compound CCO
17.2

Dear colleague, please send me the reported BUN for CN(C/C=C/C#CC(C)(C)C)Cc1cccc2ccccc12 when you can.
15.4

Item CN(C)CCCN1c2ccccc2Sc2ccc(Cl)cc21 : provide BUN
16

Specify reported BUN for the compound shown: CC(=O)[C@@]1(O)CC[C@H]2[C@@H]3C=C(Cl)C4=CC(=O)CC[C@]4(C)[C@H]3CC[C@@]21C
17.8

Give recorded BUN. Nc1ccc(Cc2ccc(N)cc2)cc1
14.6

Indicate its recorded BUN; the compound in question is CC(S)C(=O)NCC(=O)O (stereo unspecified)
16.6

Fill in reported BUN for this entry: NS(=O)(=O)c1cc(C(=O)O)c(NCc2ccco2)cc1Cl [FUROSEMIDE]
15.4

Note down BUN recorded for O=c1ccc2ccccc2o1
16.2

Supply reported BUN belonging to this compound: CCCCNC(=O)NS(=O)(=O)c1ccc(C)cc1 [TOLBUTAMIDE]
15.2

Specify BUN for CN(CCOc1ccc(CC2SC(=O)NC2=O)cc1)c1ccccn1.O=C(O)/C=C\C(=O)O (stereo unspecified) [ROSIGLITAZONE MALEATE] and stop.
15.4

Please report the measured BUN for O=C(O)c1ccccc1Nc1ccccc1
13.4

// data source = ChEMBL document CHEMBL3885861
